system: Mycobacterium avium; experiment: Antimycobacterial activity against Mycobacterium avium 330/88 after 21 days by micromethod; format: functional; conditions: 330/88, 504 h
readout: MIC (µM)

[[record]]
chemicalstring = "NNC(=O)c1ccncc1"
readout = "MIC"
boundsign = ">"
assayresult = 250

[[record]]
chemicalstring = "CCCCCCCCCNC(=O)Oc1ccc(Cl)cc1C(=O)Nc1cccc(Cl)c1"
readout = "MIC"
boundsign = "="
assayresult = 4

[[record]]
chemicalstring = "CCCCCCNC(=O)Oc1ccc(Cl)cc1C(=O)Nc1cccc(Cl)c1"
readout = "MIC"
boundsign = "="
assayresult = 8

[[record]]
chemicalstring = "CCCCCCCNC(=O)Oc1ccc(Cl)cc1C(=O)Nc1cccc(Cl)c1"
readout = "MIC"
boundsign = "="
assayresult = 8

[[record]]
chemicalstring = "CCCCCCCCCCCNC(=O)Oc1ccc(Cl)cc1C(=O)Nc1cccc(Cl)c1"
readout = "MIC"
boundsign = "="
assayresult = 8

[[record]]
chemicalstring = "CCCCCCCCCCNC(=O)Oc1ccc(Cl)cc1C(=O)Nc1ccc(Cl)cc1"
readout = "MIC"
boundsign = "="
assayresult = 8

[[record]]
chemicalstring = "CCNC(=O)Oc1ccc(Cl)cc1C(=O)Nc1ccc(Cl)cc1"
readout = "MIC"
boundsign = "="
assayresult = 8

[[record]]
chemicalstring = "CCCCCNC(=O)Oc1ccc(Cl)cc1C(=O)Nc1ccc(Cl)c(Cl)c1"
readout = "MIC"
boundsign = "="
assayresult = 16

[[record]]
chemicalstring = "CCNC(=O)Oc1ccc(Cl)cc1C(=O)Nc1ccc(Cl)c(Cl)c1"
readout = "MIC"
boundsign = "="
assayresult = 32

[[record]]
chemicalstring = "CCCCNC(=O)Oc1ccc(Cl)cc1C(=O)Nc1ccc(Cl)cc1"
readout = "MIC"
boundsign = "="
assayresult = 8

[[record]]
chemicalstring = "CCCCNC(=O)Oc1ccc(Cl)cc1C(=O)Nc1ccc(Cl)c(Cl)c1"
readout = "MIC"
boundsign = "="
assayresult = 16

[[record]]
chemicalstring = "CCCCCNC(=O)Oc1ccc(Cl)cc1C(=O)Nc1cccc(Cl)c1"
readout = "MIC"
boundsign = "="
assayresult = 8

[[record]]
chemicalstring = "CCCCCCCCCCCNC(=O)Oc1ccc(Cl)cc1C(=O)Nc1ccc(Cl)c(Cl)c1"
readout = "MIC"
boundsign = "="
assayresult = 16

[[record]]
chemicalstring = "CCCCCCCCCCNC(=O)Oc1ccc(Cl)cc1C(=O)Nc1cccc(Cl)c1"
readout = "MIC"
boundsign = "="
assayresult = 8

[[record]]
chemicalstring = "CCCCCCCCCCCNC(=O)Oc1ccc(Cl)cc1C(=O)Nc1ccc(Cl)cc1"
readout = "MIC"
boundsign = "="
assayresult = 8

[[record]]
chemicalstring = "CCNC(=O)Oc1ccc(Cl)cc1C(=O)Nc1cccc(Cl)c1"
readout = "MIC"
boundsign = "="
assayresult = 8

[[record]]
chemicalstring = "CCCCCCCCCNC(=O)Oc1ccc(Cl)cc1C(=O)Nc1ccc(Cl)c(Cl)c1"
readout = "MIC"
boundsign = "="
assayresult = 8

[[record]]
chemicalstring = "CCCCCCCCCNC(=O)Oc1ccc(Cl)cc1C(=O)Nc1ccc(Cl)cc1"
readout = "MIC"
boundsign = "="
assayresult = 16

[[record]]
chemicalstring = "CCCCCNC(=O)Oc1ccc(Cl)cc1C(=O)Nc1ccc(Cl)cc1"
readout = "MIC"
boundsign = "="
assayresult = 8

[[record]]
chemicalstring = "CCCCNC(=O)Oc1ccc(Cl)cc1C(=O)Nc1cccc(Cl)c1"
readout = "MIC"
boundsign = "="
assayresult = 16

[[record]]
chemicalstring = "CCCCCCCNC(=O)Oc1ccc(Cl)cc1C(=O)Nc1ccc(Cl)cc1"
readout = "MIC"
boundsign = "="
assayresult = 8

[[record]]
chemicalstring = "CCCCCCCCCCNC(=O)Oc1ccc(Cl)cc1C(=O)Nc1ccc(Cl)c(Cl)c1"
readout = "MIC"
boundsign = "="
assayresult = 8

